- protocol text: Absorption in the body: blood concentrations by LC-MS/MS after oral administration
- Format: in vivo, rat
- stated conditions: male, SD (IGS), rat, 4 µmol/kg, rats, suspension in 0.5% CMC (0.8 mM), 5 mL/kg, pooled plasma, β-glucuronidase/arylsulphatase treated, read-out: maximum blood concentration (Cmax) of the administered compound itself
measure: Cmax

{"columns": ["compound", "Cmax"],
 "data": [
  ["C[C@@H]1O[C@@H](O[C@@H]2[C@@H](O)[C@H](OCCc3ccc(O)c(O)c3)O[C@H](CO)[C@H]2OC(=O)/C=C/c2ccc(O)c(O)c2)[C@H](O)[C@H](O)[C@H]1O [acteoside]", "< 1000 nM"]
]}

# next compound below
Exam item: Identify Cmax associated with the compound O=C(C=Cc1ccc(O)c(O)c1)O[C@@H]1C(CO)OC(OCCc2ccc(O)c(O)c2)C(O)C1O (some centres unmarked) [DRA, desrhamnosyl acteoside]
Marked response: < 1000 nM

Reference source: patent US20140357582A1
